# System: Canis familiaris
# protocol_notes: Toxicity in iv dosed coronary ligated dog assessed as concentration required to cause convulsions
# Format: organism-based, Canis lupus familiaris
# experimental_setup: in vivo
Please mark condition met if the recorded Activity is equal to or greater than 0.3 mmol/kg, and condition not met if it falls below.

Here are 3 compounds together with their reported answers.
Cc1cccc(C)c1NC(=O)[C@@H](C)N.Cl    condition not met
CCc1cccc(CC)c1NC(=O)C(C)N.Cl (stereo not given)    condition not met
Cc1cccc(C)c1NC(=O)CN.Cl    condition met

Consider the record given below.
Could you verify whether the entry CCN(CC)CC(=O)Nc1c(C)cccc1C.Cl shows Activity of no less than 0.3 mmol/kg? condition not met

###

# protocol_notes: Half life in dog
# Type: ADME, organism-based, Canis lupus familiaris
# experimental_setup: in vivo
A collection of compounds and their measured half-life

Worked set:
Cc1cccc(C)c1NC(=O)C(C)N.Cl (racemic) [TOCAINIDE HYDROCHLORIDE]    4.7 h
Cc1cccc(C)c1NC(=O)CN.Cl    3.7 h

We now examine a further compound.
Reported half-life for CCC(N)C(=O)Nc1c(C)cccc1C.Cl (stereo not drawn) : what is it? 1.5 h

###

# System: Canis familiaris
# protocol_notes: Antiarrhythmic activity in iv dosed coronary ligated dog assessed as concentration required to reduce ventricular ectopic beats to <5% of total ventricular beats measured for 5 mins
# Assay type: functional, Canis lupus familiaris, Heart
A collection of compounds and their measured Activity
A number alone suffices; assume mmol/kg.

Cc1cccc(C)c1NC(=O)[C@H](C)N.Cl    0.11
Cc1cccc(C)c1NC(=O)CN.Cl    0.48
Cc1cccc(C)c1NC(=O)C(C)N.Cl (racemic) [TOCAINIDE HYDROCHLORIDE]    0.32
Cc1cccc(C)c1NC(=O)[C@@H](C)N.Cl    0.31
CCN(CC)CC(=O)Nc1c(C)cccc1C.Cl    0.21

We now examine a further compound.
Reported Activity for CCc1cccc(CC)c1NC(=O)C(C)N.Cl (stereo unspecified) : what is it? 0.26

###

# Test system: Canis familiaris
# protocol_notes: Antiarrhythmic activity in coronary ligated dog assessed as reduction of ventricular rates at 0.5 mg/kg, iv measured for 5 mins relative to control
# Type: functional, Canis lupus familiaris, Heart
reported_metric: Activity (bpm)
A number alone suffices; assume bpm.

Cc1cccc(C)c1NC(=O)[C@H](C)N.Cl    99

Form field - read-out: Activity; system: Canis familiaris; submitted item: Cc1cccc(C)c1NC(=O)C(C)N.Cl (racemic) [TOCAINIDE HYDROCHLORIDE] 148

###

# Test system: Mus musculus
# protocol_notes: Toxicity in Swiss albino mouse assessed as induction of convulsions at 100 mg/kg, sc relative to control
# Assay type: organism-based
# Parameters: dose 100 mg/kg, route subcutaneous
# experimental_setup: in vivo
A collection of molecules and their measured Activity
A number alone suffices; assume %.

Reported Activity for Cc1cc(C)c(NC(=O)CN)c(C)c1.Cl : what is it? 80

Reported Activity for Cc1cccc(C)c1NC(=O)[C@H](C)N.Cl : what is it? 0

###

A collection of compounds and their measured Activity
# Tested on: Mus musculus
# protocol_notes: Toxicity in Swiss albino mouse assessed as induction of ataxia at 100 mg/kg, sc relative to control
# Format: organism-based
# Parameters: dose 100 mg/kg, route subcutaneous
# experimental_setup: in vivo
Mention the unit after the number when you answer.

Worked set:
Cc1cc(C)c(NC(=O)CN)c(C)c1.Cl    100%
Cc1cccc(C)c1NC(=O)C(C)N.Cl (racemic) [TOCAINIDE HYDROCHLORIDE]    10%
CCc1cccc(C)c1NC(=O)CN.Cl    100%
Cc1cccc(C)c1NC(=O)C(N)c1ccccc1.Cl (stereo unspecified)    100%
Cc1cccc(C)c1NC(=O)[C@@H](C)N.Cl    70%

Reported Activity for Cc1cccc(C)c1NC(=O)CN.Cl : what is it? 0%

Reported Activity for CCN(CC)CC(=O)Nc1c(C)cccc1C.Cl : what is it? 100%

Reported Activity for Cc1cccc(C)c1NC(=O)[C@H](C)N.Cl : what is it? 0%

Reported Activity for CCc1cccc(CC)c1NC(=O)C(N)CC.Cl (stereo unspecified) : what is it? 100%

Reported Activity for CCc1cccc(CC)c1NC(=O)C(C)N.Cl (stereo unspecified) : what is it? 100%

Reported Activity for CCc1cccc(CC)c1NC(=O)CN.Cl : what is it? 100%
